Assay: Inhibition of Dengue virus serotype-2 NS2B-NS3 protease using 2-Abz-Nle-Lys-Arg-Arg-Ser-(3-NO2)-Tyr-NH2 as substrate preincubated with protein for 15 mins followed by substrate addition measured for 15 mins by FRET assay
Set-up: species or system dengue virus type 2
Entries and their measured pIC50 follow.
The meaning of pIC50 here: minus log10 of the concentration in molar units.

Known results for molecules:
- Chem smiles: "N=C(N)NCCC[C@H](NC(=O)c1ccccc1)C(=O)N[C@@H](CCCCN)C(=O)N[C@@H](C(N)=O)c1ccc(OCC(=O)c2ccccc2)cc1"
  pIC50: 6.31
- Chem smiles: "N=C(N)NCCC[C@H](NC(=O)c1ccccc1)C(=O)N[C@@H](CCCCN)C(=O)N[C@@H](C(N)=O)c1ccc(OCc2ccc(OC(F)(F)F)cc2)cc1"
  pIC50: 6.74

Please turn your attention to the following entry.
Input: Sample N=C(N)NCCC[C@H](NC(=O)c1ccc(-c2cccs2)s1)C(=O)N[C@@H](CCCCN)C(=O)N[C@@H](C(N)=O)c1ccc(OCc2ccc(Cl)c(Cl)c2)cc1 — what was its pIC50?
Output: 6.67

Where these numbers come from: ChEMBL document CHEMBL3739314
